Each recorded value in this set is attributed to paper PMC6448791.

System: all five tested human cancer cell lines
experiment.description: SRB cytotoxicity, all five tested human cancer cell lines
Format: cell-based
settings: read-out: IC50 against all five tested human cancer cell lines
pIC50: −log10 of the molar value.
assay.metric: pIC50

Exam item: State pIC50 (all five tested human cancer cell lines) of CCOC(=O)CCCNC(=O)[C@]12CCC(C)(C)C[C@H]1C1=CC[C@@H]3[C@@]4(C)CC[C@H](OC(C)=O)[C@@](C)(COC(C)=O)[C@@H]4CC[C@@]3(C)[C@]1(C)CC2 .
Marked response: 5.07 to 5.55
